- target_under_test: Alpha-1A adrenergic receptor (Homo sapiens, UniProt P35348)
- Sequence (P35348 whole entry): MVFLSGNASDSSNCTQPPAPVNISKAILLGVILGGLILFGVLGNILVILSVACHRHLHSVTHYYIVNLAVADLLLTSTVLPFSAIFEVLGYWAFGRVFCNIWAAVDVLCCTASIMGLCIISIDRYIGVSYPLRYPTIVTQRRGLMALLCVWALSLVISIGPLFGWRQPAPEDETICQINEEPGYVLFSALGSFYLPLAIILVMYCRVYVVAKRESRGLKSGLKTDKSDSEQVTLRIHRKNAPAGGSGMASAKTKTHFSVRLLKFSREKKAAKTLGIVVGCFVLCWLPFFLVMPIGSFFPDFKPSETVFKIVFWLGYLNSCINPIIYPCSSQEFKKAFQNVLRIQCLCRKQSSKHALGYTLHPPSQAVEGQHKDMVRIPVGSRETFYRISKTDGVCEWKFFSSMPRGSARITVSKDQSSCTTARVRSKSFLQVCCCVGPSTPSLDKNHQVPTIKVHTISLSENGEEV
Property: Ki; scope: individual compounds
Entry rule: numbers only, all in nM.

Some compounds with recorded Ki:
compound_structure_string	target_under_test	assay_value
Clc1cccc(N2CCN(CCCCNc3cc(-c4ccccc4)ccn3)CC2)c1Cl	Alpha-1A adrenergic receptor (Homo sapiens, UniProt P35348)	58
FC(F)(F)c1cccc(N2CCN(CCCCNc3ccccn3)CC2)c1	Alpha-1A adrenergic receptor (Homo sapiens, UniProt P35348)	593
COc1ccccc1N1CCN(CCCCNc2ccc3ccccc3n2)CC1	Alpha-1A adrenergic receptor (Homo sapiens, UniProt P35348)	6
FC(F)(F)c1cccc(N2CCN(CCCCNc3cc(-c4ccccc4)ccn3)CC2)c1	Alpha-1A adrenergic receptor (Homo sapiens, UniProt P35348)	119
FC(F)(F)c1cccc(N2CCN(CCCCNc3ncc(-c4ccccc4)o3)CC2)c1	Alpha-1A adrenergic receptor (Homo sapiens, UniProt P35348)	272
Cc1ccccc1N1CCN(CCCCNc2ccccn2)CC1	Alpha-1A adrenergic receptor (Homo sapiens, UniProt P35348)	14

Turning now to a further record.
What does the record list as Ki for COc1ccccc1N1CCN(CCCCNc2ccccn2)CC1 ?
23

###

- Species on record: Homo sapiens
- test_description: Selectivity ratio of Ki for human dopamine D2S receptor to Ki for human dopamine D3 receptor
Binary label based on Ratio Ki with cut-off 30: below gives Met, not below gives Not met.

Field: example entries. Status: answers known.
compound_structure_string	group
Fc1ccccc1N1CCN(CCCCNc2ccccn2)CC1	Met
FC(F)(F)c1cccc(N2CCN(CCCCNc3nc(-c4ccccc4)cs3)CC2)c1	Not met
Clc1cccc(N2CCN(CCCCNc3cc(-c4ccccc4)ccn3)CC2)c1Cl	Not met

Find out if reported Ratio Ki for FC(F)(F)c1cccc(N2CCN(CCCCNc3ccc4ccccc4n3)CC2)c1 is less than 30
Not met

Item: Clc1cccc(N2CCN(CCCCNc3ccc(-c4ccccc4)cn3)CC2)c1Cl
Not met

###

- Species on record: Homo sapiens
- test_description: Selectivity ratio of Ki for human adrenergic alpha1A receptor to Ki for human dopamine D3 receptor
Property: Ratio Ki; scope: individual compounds
# output: bare number, no unit

compound_structure_string	Ratio Ki
COc1ccccc1N1CCN(CCCCNc2ccccn2)CC1	29
Cc1ccccc1N1CCN(CCCCNc2ccccn2)CC1	0.4
FC(F)(F)c1cccc(N2CCN(CCCCNc3nccc4ccccc34)CC2)c1	68
Cc1cccc(N2CCN(CCCCNc3ccccn3)CC2)c1C	3
Clc1cccc(N2CCN(CCCCNc3ccc4ccccc4n3)CC2)c1Cl	77

What does the record list as Ratio Ki for FC(F)(F)c1cccc(N2CCN(CCCCNc3cc(-c4ccccc4)ccn3)CC2)c1 ?
157

Item: Fc1ccccc1N1CCN(CCCCNc2ccccn2)CC1
1.5

###

Here's a batch of molecules along with measured pKi for D(2) dopamine receptor (Homo sapiens, UniProt P14416).
pKi is defined as minus the log10 of a concentration measured in mol/L.

So what pKi did Fc1ccccc1N1CCN(CCCCNc2ccccn2)CC1 get with D(2) dopamine receptor (Homo sapiens, UniProt P14416)?
6.88

Item: Clc1cccc(N2CCN(CCCCNc3ccc(-c4ccccc4)cn3)CC2)c1Cl
7.39

Item: COc1ccccc1N1CCN(CCCCNc2ccccn2)CC1
6.70

Item: Clc1cccc(N2CCN(CCCCNc3cc(-c4ccccc4)ccn3)CC2)c1Cl
6.74

Item: FC(F)(F)c1cccc(N2CCN(CCCCNc3ccc4ccccc4n3)CC2)c1
7.28

Item: FC(F)(F)c1cccc(N2CCN(CCCCNc3ccccn3)CC2)c1
6.70

Item: Cc1ccccc1N1CCN(CCCCNc2ccccn2)CC1
6.42

Item: FC(F)(F)c1cccc(N2CCN(CCCCNc3nc(-c4ccccc4)cs3)CC2)c1
5.61

###

- System: Mus musculus
- test_description: Absolute bioavailability in mouse plasma at 10 mg/kg dose po and iv
- Format: ADME, organism-based
- test_settings: in vivo
parameter: bioavailability
# output: bare number, no unit

What does the record list as bioavailability for FC(F)(F)c1cccc(N2CCN(CCCCNc3cc(-c4ccccc4)ccn3)CC2)c1 ?
0.4

###

- target_under_test: D(3) dopamine receptor (Homo sapiens, UniProt P35462)
- Sequence (P35462 whole entry): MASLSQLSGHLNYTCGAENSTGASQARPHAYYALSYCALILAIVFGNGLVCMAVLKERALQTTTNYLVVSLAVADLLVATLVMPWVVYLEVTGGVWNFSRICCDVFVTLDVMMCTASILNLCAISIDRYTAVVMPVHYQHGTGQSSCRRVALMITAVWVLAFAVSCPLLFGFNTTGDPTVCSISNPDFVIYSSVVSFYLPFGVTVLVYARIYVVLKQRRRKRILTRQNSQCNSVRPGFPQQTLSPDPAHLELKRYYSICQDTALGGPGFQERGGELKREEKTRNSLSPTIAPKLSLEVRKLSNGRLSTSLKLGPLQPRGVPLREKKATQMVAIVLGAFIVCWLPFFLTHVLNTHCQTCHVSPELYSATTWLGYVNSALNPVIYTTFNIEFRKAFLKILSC
- test_description: biochemical
- Description: Displacement of [3H]spiperone from human dopamine D3 receptor expressed in CHO cells
parameter: log10 Ki (log10 of the value in nM)
Scale: decimal log of Ki, Ki in nM.

compound_structure_string	log10 Ki
Cc1cccc(N2CCN(CCCCNc3ccccn3)CC2)c1C	1.08
FC(F)(F)c1cccc(N2CCN(CCCCNc3ccc4ccccc4n3)CC2)c1	0.20
Clc1cccc(N2CCN(CCCCNc3ccc4ccccc4n3)CC2)c1Cl	-0.22
FC(F)(F)c1cccc(N2CCN(CCCCNc3ccccn3)CC2)c1	1.23
Fc1ccccc1N1CCN(CCCCNc2ccc(-c3ccccc3)cn2)CC1	0.40

Turning now to a further record.
What does the record list as log10 Ki for FC(F)(F)c1cccc(N2CCN(CCCCNc3nc(-c4ccccc4)cs3)CC2)c1 ?
1.11

###

- Organism: Homo sapiens
- test_description: Selectivity ratio of Ki for human adrenergic alpha1A receptor to Ki for human dopamine D3 receptor
Label Yes when Ratio Ki is at or above 8; anything below gets No.

Field: example entries. Status: answers known.
compound_structure_string	group
COc1ccccc1N1CCN(CCCCNc2nccc3ccccc23)CC1	No
FC(F)(F)c1cccc(N2CCN(CCCCNc3nc(-c4ccccc4)cs3)CC2)c1	No
Clc1cccc(N2CCN(CCCCNc3ccc(-c4ccccc4)cn3)CC2)c1Cl	Yes
FC(F)(F)c1cccc(N2CCN(CCCCNc3ccc4ccccc4n3)CC2)c1	No
Clc1cccc(N2CCN(CCCCNc3cc(-c4ccccc4)ccn3)CC2)c1Cl	Yes

Is Ratio Ki at least 8? Consider FC(F)(F)c1cccc(N2CCN(CCCCNc3ccc(-c4ccccc4)cn3)CC2)c1
Yes

###

Property: Ratio Ki; scope: individual molecules
- Species on record: Homo sapiens
- test_description: Selectivity ratio of Ki for human adrenergic alpha1A receptor to Ki for human dopamine D3 receptor
# output: bare number, no unit

Some molecules with recorded Ratio Ki:
compound_structure_string	Ratio Ki
FC(F)(F)c1cccc(N2CCN(CCCCNc3ccccn3)CC2)c1	35
Fc1ccccc1N1CCN(CCCCNc2ccc(-c3ccccc3)cn2)CC1	4
FC(F)(F)c1cccc(N2CCN(CCCCNc3ncc(-c4ccccc4)o3)CC2)c1	28

Turning now to a further record.
What does the record list as Ratio Ki for Fc1ccccc1N1CCN(CCCCNc2cc(-c3ccccc3)ccn2)CC1 ?
6
